# TESTED ON: Gamma-aminobutyric acid receptor subunit alpha-6/beta-3/gamma-2 (Rattus norvegicus) (UniProt P18508+P30191+P63079)
# METHOD DESCRIPTION: Positive allosteric modulation of rat recombinant GABAA alpha6beta3alpha6-gamma2beta3 receptor expressed in Xenopus laevis oocytes assessed as maximal current under less potent phase in presence of GABA EC1 to 1.5 by two-electrode voltage-clamp assay relative to control
# Assay type: cell-based
# ASSAY SETUP: Oocyte, filed as positive allosteric modulator
Please respond with T when measured %max is strictly beneath 2000%, and with F in all other cases.

Worked examples follow.
[
  {
    "SMILES": "CCc1ccc2c3nn(-c4ccc(OC)cc4)c(=O)c-3c[nH]c2c1",
    "CLASS NAME": "F"
  },
  {
    "SMILES": "COc1ccc(-n2nc3c4ccc(C(F)(F)F)cc4[nH]cc-3c2=O)cc1",
    "CLASS NAME": "F"
  },
  {
    "SMILES": "COc1ccc(-n2nc3c4ccc(Br)cc4[nH]cc-3c2=O)cc1",
    "CLASS NAME": "T"
  },
  {
    "SMILES": "COc1ccc(-n2nc3c4ccc(OC)cc4[nH]cc-3c2=O)cc1",
    "CLASS NAME": "T"
  },
  {
    "SMILES": "COc1ccc(-n2nc3c4ccc(C(C)=O)cc4[nH]cc-3c2=O)cc1",
    "CLASS NAME": "F"
  },
  {
    "SMILES": "COc1ccc(-n2nc3c4ccc(Cl)cc4[nH]cc-3c2=O)cc1",
    "CLASS NAME": "T"
  }
]

Asked: Hello, is %max of the following compound strictly smaller than 2000%? COc1ccc(-n2nc3c4ccc(F)cc4[nH]cc-3c2=O)cc1
Given back: T

All figures here come from ChEMBL document CHEMBL5252552.
